Molecular target: H1-SC (Influenza A virus)
Experiment: FACS, HA on mammalian cells; 2nd only 7.5
Measure: % cells binding to HA (%)

{"Binder": "FHF11v6 (antibody, V domains shown) VH: QVQLQQSGPGLVKPSQTLSVTCGISGDSVSSHSAAWNWIRQSPSRGLEWLGRTYYRSGWYNDYAVSVKSRITINPDTSKNQFSLQLISVTPEDTAVYYCARVGAMTFGLLTGGMDVWGQGTTVTVSS VL: EIVLTQSPGTQSLSPGERATLSCRASQSLSRSYLAWYQQRPGKPPRLLIYGASSRATGIPDRFSGSGSGTDFSLTISSLEPEDSAMYFCQYYGDSPLFSFGPGTKVDIK", "Measure": "% cells binding to HA", "Quantity Unit": "%", "Number": 82}
